Target: full-length beta-Catenin (Uniprot ID P35222) (Homo sapiens, UniProt P35222)
Construct: 10 nM full-length beta-Catenin (Uniprot ID P35222)
Sequence (P35222 whole entry): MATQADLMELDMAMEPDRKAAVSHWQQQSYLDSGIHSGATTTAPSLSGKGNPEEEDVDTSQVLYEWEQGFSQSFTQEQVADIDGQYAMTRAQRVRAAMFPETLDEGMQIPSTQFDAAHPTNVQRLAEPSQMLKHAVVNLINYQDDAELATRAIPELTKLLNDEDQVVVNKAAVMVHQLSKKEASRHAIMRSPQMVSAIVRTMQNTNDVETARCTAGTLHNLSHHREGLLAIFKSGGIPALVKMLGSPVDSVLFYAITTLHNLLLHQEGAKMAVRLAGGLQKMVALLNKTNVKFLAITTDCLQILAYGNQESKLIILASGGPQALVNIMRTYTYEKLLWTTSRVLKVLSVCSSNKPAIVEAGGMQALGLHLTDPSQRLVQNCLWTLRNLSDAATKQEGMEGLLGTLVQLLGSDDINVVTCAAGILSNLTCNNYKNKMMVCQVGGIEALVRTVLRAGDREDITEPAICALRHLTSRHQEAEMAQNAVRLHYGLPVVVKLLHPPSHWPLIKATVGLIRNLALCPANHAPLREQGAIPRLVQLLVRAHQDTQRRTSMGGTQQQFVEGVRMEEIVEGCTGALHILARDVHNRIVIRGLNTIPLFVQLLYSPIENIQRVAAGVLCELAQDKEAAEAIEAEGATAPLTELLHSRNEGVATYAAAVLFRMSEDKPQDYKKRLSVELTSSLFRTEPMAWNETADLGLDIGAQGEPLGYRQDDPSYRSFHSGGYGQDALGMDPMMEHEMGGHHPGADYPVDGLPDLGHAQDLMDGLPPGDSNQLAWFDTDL
Test: Fluorescence polarization IC50 (beta-catenin / 5FAM-TCF4 10-53 competition)
Format: binding
Details: read-out: beta-Catenin FP IC50
readout label: IC50 (nM)
Your answer should be a plain number; it is taken to be in nM.

Query :: Consider the molecule CCN(CC(=O)O)C[C@@H]1NC(=O)[C@H](CC(=O)O)NC(=O)C2(CCCC=CCCCOC(=O)N3CC[C@@](C(=O)N[C@@H](Cc4ccsc4)C(=O)N[C@@H](Cc4csc5ccccc45)C(=O)N[C@@H](CCC(N)=O)C(N)=O)(C3)NC(=O)[C@H](CC(C)C)NC(=O)[C@H](Cc3ccccc3)NC(=O)[C@H](C)NC(=O)[C@H](C)NC1=O)CCCC=CC[C@]1(CCCN1C(C)=O)C(=O)N[C@@H](CC(=O)O)C(=O)N[C@@H](CC(C)(C)C)C(=O)N2 (some centres unmarked) [I-973] and give its recorded IC50.
Result :: 9

Query :: Consider the molecule COCCOCCC(=O)NCCCC[C@H](NC(=O)[C@H](CCC(N)=O)NC(=O)[C@H](Cc1csc2ccccc12)NC(=O)[C@H](Cc1ccsc1)NC(=O)[C@]12CCN(C1)C(=O)OCCCC=CCCCC1(CCCC=CC[C@]3(CCCN3C(C)=O)C(=O)N[C@@H](CC(=O)O)C(=O)N[C@@H](CC(C)(C)C)C(=O)N1)C(=O)N[C@@H](CC(=O)O)C(=O)N[C@@H](CC(=O)O)C(=O)N[C@@H](C)C(=O)N[C@@H](C)C(=O)N[C@@H](Cc1ccccc1)C(=O)N[C@@H](CC(N)=O)C(=O)N2)C(N)=O (some centres unmarked) and give its recorded IC50.
Result :: 12
